The entries below come with measured growth values attached.
- Tested on: OVCAR-5 ovarian
- protocol: NCI-60 one-dose screen, 48 h (100 = growth as untreated, 0 = no growth, -100 = all killed)
- recorded.conditions: 10 µM unless noted
The panel holds about 83,000 compounds, 20% with a hit somewhere; the sample as a whole holds those more often.
Give a bare numeral; the unit % is implied.

See these solved cases before continuing.
| record.smiles | observation.type | recorded.measurement |
| --- | --- | --- |
| Cc1cccc(Cl)c1NC(=O)c1ccc2nc(NC(=O)NC3CC(C)(C)NC(C)(C)C3)sc2c1 | growth | 78 |
| COc1ccc2nc(-c3ccc(-n4cncc4-c4ccc(OC)c(N)c4)cc3)sc2c1 | growth | 108 |

Let us examine a further case.
# input Give me measured growth, please, for this compound: COc1ccc(OC)c2c1[nH]c(=O)c1c3ccccc3cn21
# output -45.1
